Consider the following binders; for each one, report its Ub-ELuc luciferase, Dark, Dox 0 ng/mL.
tgt: Cry2 PHR (L348F)-p65AD-NLSx2 fusion construct as released from the TetR (I194T, 1-206)-CIB1 (-NLS)-T2A-Cry2 PHR (L348F)-p65AD-NLSx2 fusion construct
Sequence (Q96524 other isoform, or with tags, fused parts or gaps L348F I194T L348F L348F I194T L348F): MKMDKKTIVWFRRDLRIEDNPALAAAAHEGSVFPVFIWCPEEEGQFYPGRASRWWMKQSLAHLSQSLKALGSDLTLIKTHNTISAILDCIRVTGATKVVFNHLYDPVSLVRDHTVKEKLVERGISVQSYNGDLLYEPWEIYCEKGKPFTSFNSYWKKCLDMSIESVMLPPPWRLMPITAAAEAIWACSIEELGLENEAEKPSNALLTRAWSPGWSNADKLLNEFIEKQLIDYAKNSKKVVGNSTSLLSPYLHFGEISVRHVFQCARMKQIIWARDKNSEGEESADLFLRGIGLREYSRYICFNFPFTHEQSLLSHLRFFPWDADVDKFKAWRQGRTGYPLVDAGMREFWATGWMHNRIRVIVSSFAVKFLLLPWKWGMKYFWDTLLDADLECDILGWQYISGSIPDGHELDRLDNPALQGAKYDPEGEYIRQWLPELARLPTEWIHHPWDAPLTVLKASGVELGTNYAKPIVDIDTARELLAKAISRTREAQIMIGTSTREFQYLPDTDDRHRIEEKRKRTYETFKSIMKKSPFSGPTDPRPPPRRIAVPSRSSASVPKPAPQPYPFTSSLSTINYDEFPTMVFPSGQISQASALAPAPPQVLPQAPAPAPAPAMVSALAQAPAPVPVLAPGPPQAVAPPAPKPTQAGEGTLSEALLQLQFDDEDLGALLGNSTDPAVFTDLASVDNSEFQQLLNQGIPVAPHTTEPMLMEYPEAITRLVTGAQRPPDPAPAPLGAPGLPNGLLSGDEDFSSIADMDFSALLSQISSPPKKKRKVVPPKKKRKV
test method notes: cell-based or functional assay
The reply should contain only the number, in relative.

response.value for TetR (I194T, H100Y, 1-206)-CIB1 (-NLS) from the T2A construct (protein, part only, T2A residues at C-terminus) MARLDKSKVINSALELLNEVGIEGLTTRKLAQKLGVEQPTLYWHVKNKRALLDALAIEMLDRHHTHFCPLEGESWQDFLRNNAKSFRCALLSHRDGAKVYLGTRPTEKQYETLENQLAFLCQQGFSLENALYALSAVGHFTLGCVLEDQEHQVAKEERETPTTDSMPPLLRQAIELFDHQGAEPAFLFGLELITCGLEKQLKCESGSPKKKHMEFNGAIGGDLLLNFPDMSVLERQRAHLKYLNPTFDSPLAGFFADSSMITGGEMDSYLSTAGLNLPMMYGETTVEGDSRLSISPETTLGTGNFKAAKFDTETKDCNEAAKKMTMNRDDLVEEGEEEKSKITEQNNGSTKSIKKMKHKAKKEENNFSNDSSKVTKELEKTDYI (field: Ub-ELuc luciferase, Dark, Dox 0 ng/mL) = 2.6

Lookup result for rTetR (I194T, S2 mutation, 1-206)-CIB1 (-NLS) from the T2A construct (protein, part only; not given: Leftover T2A residues, part only) chain, part: MARLDKSKVINSALELLNGVGIEGLTTRKLAQKLGVEQPTLYWHVKNKRALLDALPIEMLDRHHTHFCPLEGESWQDFLRNNAKSFRCALLSHRDGAKVHLGTRPTEKQYETLENQLAFLCQQGFSLENALYALSAVGHFTLGCVLEEQEHQVAKEERETPTTDSMPPLLRQAIELFDRQGAEPAFLFGLELITCGLEKQLKCESGSPKKKHMEFNGAIGGDLLLNFPDMSVLERQRAHLKYLNPTFDSPLAGFFADSSMITGGEMDSYLSTAGLNLPMMYGETTVEGDSRLSISPETTLGTGNFKAAKFDTETKDCNEAAKKMTMNRDDLVEEGEEEKSKITEQNNGSTKSIKKMKHKAKKEENNFSNDSSKVTKELEKTDYI ; measured Ub-ELuc luciferase, Dark, Dox 0 ng/mL: 0.2

Reported Ub-ELuc luciferase, Dark, Dox 0 ng/mL of rTetR (I194T, rtTA mutation, 1-206)-CIB1 (-NLS) from the T2A construct (protein, part only; not given: Leftover T2A residues, part only) chain, part: MARLDKSKVINSALELLNEVGIEGLTTRKLAQKLGVEQPTLYWHVKNKRALLDALAIEMLDRHHTHFCPLKGESWQDFLRNNAKSFRCALLSHRNGAKVHSDTRPTEKQYETLENQLAFLCQQGFSLENALYALSAVGHFTLGCVLEDQEHQVAKEERETPTTDSMPPLLRQAIELFDHQGAEPAFLFGLELITCGLEKQLKCESGSPKKKHMEFNGAIGGDLLLNFPDMSVLERQRAHLKYLNPTFDSPLAGFFADSSMITGGEMDSYLSTAGLNLPMMYGETTVEGDSRLSISPETTLGTGNFKAAKFDTETKDCNEAAKKMTMNRDDLVEEGEEEKSKITEQNNGSTKSIKKMKHKAKKEENNFSNDSSKVTKELEKTDYI : 0.2

Consider rTetR (I194T, M2 mutation, 1-206)-CIB1 (-NLS) from the T2A construct (protein, part only; not given: Leftover T2A residues, part only) chain, part: MARLDKSKVINGALELLNGVGIEGLTTRKLAQKLGVEQPTLYWHVKNKRALLDALPIEMLDRHHTHFCPLEGESWQDFLRNNAKSFRCALLSHRDGAKVHLGTRPTEKQYETLENQLAFLCQQGFSLENALYALSAVGHFTLGCVLEEQEHQVAKEERETPTTDSMPPLLRQAIELFDRQGAEPAFLFGLELITCGLEKQLKCESGSPKKKHMEFNGAIGGDLLLNFPDMSVLERQRAHLKYLNPTFDSPLAGFFADSSMITGGEMDSYLSTAGLNLPMMYGETTVEGDSRLSISPETTLGTGNFKAAKFDTETKDCNEAAKKMTMNRDDLVEEGEEEKSKITEQNNGSTKSIKKMKHKAKKEENNFSNDSSKVTKELEKTDYI . Its measured Ub-ELuc luciferase, Dark, Dox 0 ng/mL is 0.3
